Just for reference, PubChem BioAssay is where these values come from.

assay: RAM signaling pathway blockade in yeast – S. cerevisiae, Pdr1DBD-CYC8 efflux-inhibited sensitized strain, primary screen (AID 1298);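 further: 0% = DMSO untreated cells without growth and 100% = 10 µM 1-NA-PP1 full growth; higher means more yeast growth rescued from 5-FOA killing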; details: S. cerevisiae cbk1-as DSE1-URA3 strain, 5-FOA growth OD615, 2 d; at 50 µM; hits give high values
# RAM network inhibition values compiled below
The response must be a number in % with no trailing unit.

Use the examples below as a reference point.
COMPOUND: CCC(C)NC(=O)c1cc(-c2ccccc2O)on1 (stereo not drawn)
VALUE REPORTED: 2.61
--
COMPOUND: COc1cccc(-n2nnc3c(=O)n(Cc4cccc(C)c4)cnc32)c1
VALUE REPORTED: 5.49
--
COMPOUND: C=CCn1c(-c2ccco2)n[nH]c1=S
VALUE REPORTED: 2.89
--
COMPOUND: COc1ccc(C(=O)N2CCN(S(=O)(=O)c3ccc(C)cc3C)CC2)cc1OC
VALUE REPORTED: 2.18
--
COMPOUND: Cc1ccc(C)c(N2CCN(C(=O)c3cc4ccccc4oc3=O)CC2)c1
VALUE REPORTED: 3.38
--
COMPOUND: Cc1ccc(-c2nc3ncccc3o2)cc1NC(=O)Cc1ccc(Cl)cc1
VALUE REPORTED: 1.75
--
COMPOUND: Cc1ccccc1OCc1nc(-c2ccc(-n3cccc3)cc2)no1
VALUE REPORTED: 5.61
--
COMPOUND: Cn1c(=O)c2c(SCC(=O)c3ccccc3)nc(C3CC3)nc2n(C)c1=O
VALUE REPORTED: -1.03
--
COMPOUND: Cc1ccc(CSc2nnc(Cn3c(=O)sc4ccccc43)n2C)cc1
VALUE REPORTED: 6.03
--
COMPOUND: O=C1CC(c2nc3ccccc3[nH]2)CN1c1cccc(C(F)(F)F)c1 (stereo not drawn)
VALUE REPORTED: -2.12

Tell me RAM network inhibition reported for Cc1ccc(-n2c(SCC(=O)NCC3CCCO3)nc3c(c2=O)SCC3)cc1 (stereo not drawn)
2.18

# return recorded RAM network inhibition for input "Cn1c(NC(=O)CC(C)(C)C)cc(=O)n(C)c1=O"
-1.17

Give reported RAM network inhibition value for "CCOc1ccccc1NC(=O)C1CCN(S(=O)(=O)c2ccc(OC)c(OC)c2)CC1"
0.83

---

test: OD615 S. cerevisiae growth inhibition, permissive medium, pilot counter-assay, permissive growth control for S. cerevisiae lifespan shortening project (AID 705); conditions: OD615, 24 h, at 10 µM, hits give high values
Active and inactive are the calls of the source.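 The calls were made as follows: active = growth inhibition above 25% in both replicates, a cutoff set 3 SD above the mean; inconclusive = above 25% in only one replicate; inactive = the rest.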
READOUT NAME: growth inhibition

Reference set (4 entries):
COMPOUND: CC1(C)CC(=O)N(CC(=O)O)c2ccccc2S1(=O)=O
growth inhibition: -4.39% (inactive)
--
COMPOUND: CC(CCc1ccccc1)NC(=O)C1CCN(c2nnc(-n3cccc3)s2)CC1 (stereo unspecified)
growth inhibition: -2.63% (inactive)
--
COMPOUND: CCc1ccc(C2CC(c3ccc(Cl)cc3)n3nc(N)nc3N2)cc1 (stereo unspecified)
growth inhibition: 3.64% (inactive)
--
COMPOUND: COc1ccc(OC)c(C(C)NC(=O)c2ccco2)c1 (stereo unspecified)
growth inhibition: -6.2% (inactive)

Look up and report measured growth inhibition for this entry: "CC(C)(C)c1nnc2sc(SCC(=O)c3cccs3)nn2c1=O"
-4.01% (inactive)

Fill in growth inhibition for record "C=CCN(C(=O)CN1CCOCC1)c1nc(C)c(-c2ccccc2)s1"
-16.4% (inactive)

Please report growth inhibition for the following compound: O=C1CC(c2ccc(S(=O)(=O)NC3CC3)cc2)CN1 (stereo unspecified)
-9.26% (inactive)

For the compound "CN(Cc1ccccc1)c1nc2c(c(=O)n(C)c(=O)n2C)n1CCSc1ncccn1" , give its reported growth inhibition.
-11.7% (inactive)

Read the entry COc1ccc(C2N(c3cc(Cl)ccc3OC)C(=O)C3CCCN32)cc1OC (stereo unspecified) and write its reported growth inhibition.
-8.95% (inactive)

Identify growth inhibition associated with the compound O=C(C(Cc1ccccc1)n1cccc1)N1CCc2ccccc21 (stereo unspecified)
-16.3% (inactive)
